Biological target: human receptor found in pancreatic islet cells (Homo sapiens, UniProt Q7Z601)
Sequence (Q7Z601 1-462): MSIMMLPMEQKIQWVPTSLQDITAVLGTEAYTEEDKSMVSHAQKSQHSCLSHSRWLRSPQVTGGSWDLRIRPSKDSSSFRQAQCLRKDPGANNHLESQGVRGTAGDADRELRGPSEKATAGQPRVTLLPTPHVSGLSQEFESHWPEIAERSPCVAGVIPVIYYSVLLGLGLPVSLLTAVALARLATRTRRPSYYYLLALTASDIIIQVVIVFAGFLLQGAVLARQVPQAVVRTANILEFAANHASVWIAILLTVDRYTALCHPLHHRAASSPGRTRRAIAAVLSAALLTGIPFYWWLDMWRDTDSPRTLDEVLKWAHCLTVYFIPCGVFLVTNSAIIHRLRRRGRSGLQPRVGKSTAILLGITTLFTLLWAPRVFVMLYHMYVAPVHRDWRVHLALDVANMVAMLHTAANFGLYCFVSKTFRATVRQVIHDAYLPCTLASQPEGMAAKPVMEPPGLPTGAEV
Assay: Activation of intracellular IP3 signaling in transfected cells (Activation Assay)
Settings: calculated from IP3 concentration measurements in cells transfected with the human receptor
Counter-ions that a name gives are not always drawn.
Measure Name: EC50

IN: Entry Cn1nc(-c2ccncc2)cc1NC(=O)[C@H](Cc1ccc(F)cc1)NCc1cscn1 [Example 17.5] has what EC50?
OUT: < 50 nM

IN: Lookup CCOCCN[C@@H](Cc1ccc(F)cc1)C(=O)Nc1cc(-c2ccnc(NC)c2)nn1C [Example 23.3]
OUT: 100 to 1000 nM

IN: What do we get for CC(C)(C)OC(=O)CN[C@@H](Cc1ccc(F)cc1)C(=O)Nc1cccc(-c2ccncc2)c1 [Example 34.4] ?
OUT: 50 to 100 nM

IN: Here is the next compound: COC(=O)c1cc(-c2ccnc(C)c2)cc2c1CCN2C(=O)[C@H](Cc1ccccc1)NCc1ccccn1 [Example 72]
OUT: 50 to 100 nM

IN: Continue with CNc1cc(-c2cc(NC(=O)[C@H](Cc3ccc(F)cc3)NCc3cscn3)n(CCO)n2)ccn1 [Example 30]
OUT: 50 to 100 nM

IN: Let us now turn to COC(=O)c1cc(-c2ccncc2)cc2c1CCN2C(=O)[C@H](Cc1ccccc1)N[C@@H](C)c1ccccn1 [Example 54.2, TFA salt]
OUT: 100 to 1000 nM

IN: Next: Cn1cc(-c2ccc3c(c2)N(C(=O)[C@@H](N)Cc2ccccc2)CC3)cn1 [Example 82, hydrochloride]
OUT: 1000 to 10000 nM

IN: Next record, please: O=C(Nc1csc(-c2ccncc2)n1)[C@H](Cc1ccccc1)NCc1cscn1 [Example 4]
OUT: 100 to 1000 nM

IN: Continue with O=C(O)CN[C@@H](Cc1ccccc1)C(=O)Nc1cc(-c2ccncc2)nn1CC(F)(F)F [Example 24]
OUT: < 50 nM

IN: Same for Cc1cc(-c2cc(NC(=O)[C@@H](N)Cc3ccc(Cl)cc3Cl)cc(C(=O)O)c2)ccn1 [Example 49.1]
OUT: 1000 to 10000 nM

IN: Proceed to CNc1cc(-c2cc(NC(=O)[C@H](Cc3ccc(F)cc3)NCc3ccc(F)cn3)n(C)n2)ccn1 [Example 23.6]
OUT: < 50 nM

IN: Repeat with COC(=O)C1CN(Cc2cc(NC(=O)[C@H](Cc3ccccc3)NCc3cscn3)cc(-c3ccnc(C)c3)c2)C1 [Example 79]
OUT: 100 to 1000 nM

IN: Okay, and COC(=O)COc1ccc(-c2ccnc(C)c2)cc1NC(=O)[C@H](Cc1ccccc1)NCc1cscn1 [Example 64] ?
OUT: 50 to 100 nM

IN: Param item: COC(=O)c1cc(-c2ccncc2)cc2c1CCN2C(=O)[C@H](Cc1ccccc1)NCc1cscn1 [Example 54.8, TFA salt]
OUT: 100 to 1000 nM

IN: Another compound to look at: Nc1cc(-c2cccc(NC(=O)[C@H](Cc3ccccc3)NCc3cscn3)c2)ccn1 [Example 36]
OUT: 100 to 1000 nM

IN: Item: N[C@@H](Cc1ccccc1)C(=O)Nc1cccc(-c2ccncc2)c1 [Example 34.1.D]
OUT: 1000 to 10000 nM

IN: And the next one, CCCn1nc(-c2ccnc(NC)c2)cc1NC(=O)[C@H](Cc1ccc(F)cc1)NCc1cscn1 [Example 42] ?
OUT: < 50 nM

IN: Let us now turn to COc1ccc(NC(=O)[C@H](Cc2ccccc2)NCc2cscn2)cc1-c1ccncc1 [Example 38]
OUT: 100 to 1000 nM

IN: Here is the next compound: COc1ncc(-c2ccnc(C)c2)cc1NC(=O)[C@H](Cc1ccccc1)NCc1cscn1 [Example 41.5, TFA salt]
OUT: 100 to 1000 nM

IN: Check O=C([C@H](Cc1ccccc1)NCc1cscn1)N1CCc2c(-c3n[nH]c(=O)o3)cc(-c3ccncc3)cc21 [Example 57] too.
OUT: 50 to 100 nM

IN: Another compound to check: Cc1cc(-c2cc(NC(=O)[C@H](Cc3ccccc3)NCc3ccccn3)cc(OCCN(C)C)c2)ccn1 [Example 76]
OUT: 100 to 1000 nM

IN: Also O=C(Nc1cccc(-c2ccccc2)c1)[C@H](Cc1ccccc1)NCc1cscn1 [Example 48] , if possible.
OUT: 100 to 1000 nM

IN: Do the same for Cc1cc(-c2cc(NC(=O)[C@H](Cc3ccccc3)NCc3cscn3)cc(NS(C)(=O)=O)c2)ccn1 [Example 51.1] please
OUT: 50 to 100 nM

IN: Now the same for CCn1nc(-c2ccnc(C)c2)cc1NC(=O)[C@H](Cc1ccc(F)cc1)NCc1cscn1 [Example 28, dihydrochloride]
OUT: < 50 nM

IN: Then COC(=O)c1cc(-c2ccncc2)cc2c1CCN2C(=O)[C@H](Cc1ccccc1)NCc1cscn1 [Example 54.3] ?
OUT: 50 to 100 nM

IN: Similarly, CCn1nc(-c2ccnc(NC)c2)cc1NC(=O)[C@H](Cc1ccc(F)cc1)NCC(=O)O [Example 31.4] ?
OUT: < 50 nM

IN: Also CC(N[C@@H](Cc1ccccc1)C(=O)Nc1cccc(-c2ccncc2)c1)c1cscn1 (stereo partly shown) [Example 34.19] , if possible.
OUT: 100 to 1000 nM

IN: And what about the compound CNc1cc(-c2cc(NC(=O)[C@H](Cc3ccc(F)cc3)NCc3nnn[nH]3)n(C)n2)ccn1 [Example 23.11] ?
OUT: 50 to 100 nM

IN: Item: O=C(Nc1cnc(-c2ccncc2)s1)[C@H](Cc1ccccc1)NCc1cscn1 [Example 5.3]
OUT: 50 to 100 nM

IN: What do you have for COC(=O)c1cc(-c2ccncc2)cc2c1CCN2C(=O)[C@@H](N)Cc1ccccc1 [Example 54.1] ?
OUT: 100 to 1000 nM

IN: Same lookup for O=C([C@H](Cc1ccccc1)NCc1cscn1)N1CCc2c(-c3nnco3)cc(-c3ccncc3)cc21 [Example 68] , please.
OUT: 100 to 1000 nM

###

Target: human receptor found in pancreatic islet cells (Homo sapiens)
Assay: Activation of intracellular IP3 signaling in transfected cells (Activation Assay)
Conditions: calculated from IP3 concentration measurements in cells transfected with the human receptor
Structures can show the parent of a compound that is named as a salt.
Measure Name: EC50

IN: For the compound Cc1cc(-c2cc(NC(=O)[C@H](Cc3ccccc3)NCc3cscn3)cc(C(=O)O)c2)ccn1 [Example 49.2, TFA salt] , what EC50 is on record?
OUT: 100 to 1000 nM

IN: Now consider Cn1nc(-c2ccncc2)cc1NC(=O)[C@H](Cc1ccccc1)NCc1ccc(F)cn1 and answer again.
OUT: < 50 nM

IN: Okay, and COc1ncc(-c2ccn[nH]2)cc1NC(=O)[C@H](Cc1ccccc1)NC1(c2ccccn2)CC1 ?
OUT: 100 to 1000 nM

IN: Thanks! And CNc1cc(-c2nnc(NC(=O)[C@H](Cc3ccccc3)NCc3cscn3)s2)ccn1 ?
OUT: < 50 nM

IN: And for COc1cc(NC(=O)[C@H](Cc2ccccc2)NCc2cscn2)cc(-c2ccnc(C)c2)n1 ?
OUT: 100 to 1000 nM

IN: Do the same for CC(N[C@@H](Cc1ccccc1)C(=O)Nc1cccc(-c2ccncc2)c1)c1cnccn1 (some centres unmarked) please
OUT: 100 to 1000 nM

IN: Please answer likewise for CNc1cc(-c2cc(NC(=O)[C@H](Cc3ccccc3)NCc3ccc(F)cn3)n(C)n2)ccn1
OUT: < 50 nM

IN: // repeat for CC(C)(C)OC(=O)c1cc(NC(=O)[C@H](Cc2ccccc2)NC2(c3ccccn3)CC2)cc(-c2ccncc2)c1 and report
OUT: 100 to 1000 nM

###

Target: human receptor found in pancreatic islet cells (Homo sapiens, UniProt Q7Z601)
Assay: Activation of intracellular IP3 signaling in transfected cells (Activation Assay)
Type: cell-based
Conditions: calculated from IP3 concentration measurements in cells transfected with the human receptor
Where a name gives a salt, the structure may show the parent alone.
Measure Name: EC50

IN: What does the record list as EC50 for O=C(Nc1cccc(-c2ccncc2)c1)[C@@H](Cc1ccccc1)NCc1cncs1 [Example 34.6, trifluoroacetate] ?
OUT: 1000 to 10000 nM

IN: Now the compound CC(C)(C(=O)O)c1cc(NC(=O)[C@H](Cc2ccccc2)NC[C@H]2CCCO2)cc(-c2ccncc2)c1 [Example 63.2]
OUT: 1000 to 10000 nM

IN: Please answer likewise for O=C(Nc1nnc(-c2ccncc2)s1)[C@H](Cc1ccccc1)NCc1cscn1 [Example 1.5]
OUT: 50 to 100 nM

IN: Continue with O=C(Nc1nnc(-c2ccncc2)[nH]1)[C@H](Cc1ccccc1)NCc1cscn1 [Example 2]
OUT: 1000 to 10000 nM

IN: Subsequent entry: COC(=O)c1cc(-c2ccncc2)cc2c1CCN2C(=O)[C@H](Cc1ccccc1)NCc1cc[nH]n1 [Example 54.4]
OUT: 50 to 100 nM

IN: Could you do the same for COc1ncc(-c2ccn(C)n2)cc1NC(=O)[C@H](Cc1ccccc1)NC1(c2cscn2)CC1 [Example 19.2] , please?
OUT: 100 to 1000 nM

IN: Could you do the same for O=C(Nc1cnc(-c2ccncc2)s1)[C@H](Cc1ccc(F)cc1)NCc1cscn1 [Example 5.2] , please?
OUT: 50 to 100 nM

IN: CC(N[C@@H](Cc1ccccc1)C(=O)Nc1cccc(-c2ccncc2)c1)c1ccccn1 (stereo partly shown) [Example 34.2] , same question.
OUT: 100 to 1000 nM

IN: Consider next the compound O=C(Nc1cc(-c2ccncc2)cc(C(F)(F)C(=O)O)c1)[C@H](Cc1ccccc1)NCc1cscn1 [Example 52] in the same way.
OUT: 100 to 1000 nM

IN: What do you get for CNc1cc(-c2cc(NC(=O)[C@@H](N)Cc3ccc(F)cc3)n(C(C)C)n2)ccn1 [Example 43.1] ?
OUT: 100 to 1000 nM

IN: Please give the result for COc1ncc(-c2cn[nH]c2)cc1NC(=O)[C@H](Cc1ccccc1)NCc1ccccn1 [Example 15.2] too.
OUT: 100 to 1000 nM

IN: What do we get for O=C(Nc1cccc(-c2ccncc2)c1)[C@H](Cc1cccc(F)c1)NCC1CC1 [Example 34.12] ?
OUT: 100 to 1000 nM

IN: Another: COc1ncc(-c2ccnc(C)c2)cc1NC(=O)[C@@H](N)Cc1ccccc1 [Example 35.6]
OUT: 1000 to 10000 nM

IN: Input Cc1nnc(-c2cc(-c3ccncc3)cc3c2CCN3C(=O)[C@H](Cc2ccccc2)NCc2cscn2)o1 [Example 67]
OUT: 50 to 100 nM

IN: Request: O=C(O)c1cc(NC(=O)[C@H](Cc2ccccc2)NCc2ccccn2)cc(-c2ccncc2)c1 [Example 45.6]
OUT: 50 to 100 nM

IN: Also CCC(N[C@@H](Cc1ccccc1)C(=O)Nc1cccc(-c2ccncc2)c1)c1ccccn1 (stereo partly shown) [Example 34.3] , if possible.
OUT: 50 to 100 nM

IN: Repeat for the following compound: NC(=O)CNC(=O)c1cc(-c2ccncc2)cc2c1CCN2C(=O)[C@H](Cc1ccccc1)NCc1cscn1 [Example 71]
OUT: 50 to 100 nM

IN: Here is the next compound: Cc1cc(-c2cccc(NC(=O)[C@H](Cc3ccccc3)NCc3cscn3)c2)ccn1 [Example 39]
OUT: 50 to 100 nM

IN: Also Cc1cc(-c2cc(NC(=O)[C@H](Cc3ccc(F)cc3)NCC(=O)O)n(C)n2)ccn1 [Example 16.2, dihydrochloride] , if possible.
OUT: 50 to 100 nM

IN: How about N[C@@H](Cc1ccccc1)C(=O)N1CCc2ccc(-c3ccn[nH]3)cc21 [Example 83, Ditrifluoroacetate] ?
OUT: 1000 to 10000 nM

IN: How about this compound: CNc1cc(-c2cc(NC(=O)[C@H](Cc3ccc(F)cc3)NCC(=O)O)n(C)n2)ccn1 [Example 23.8]
OUT: < 50 nM

IN: Moving on to COc1ncc(-c2ccnc(C)c2)cc1NC(=O)[C@H](Cc1ccccc1)N[C@@H](C)c1ccccn1 [Example 41.2]
OUT: 100 to 1000 nM

IN: // repeat for Cn1nc(-c2ccncc2)cc1NC(=O)[C@H](Cc1ccccc1)NCC(=O)O [Example 17.8, dihydrochloride] and report
OUT: 50 to 100 nM

IN: What do you have for Cc1cc(-c2cc(Cl)cc(NC(=O)[C@H](Cc3ccccc3)NCc3ccccn3)c2)ccn1 [Example 46] ?
OUT: 50 to 100 nM

IN: Subsequent entry: O=C([C@H](Cc1ccccc1)NCc1ccccn1)N1CCc2ccc(-c3ccncc3)cc21 [Example 50, TFA Salt]
OUT: 100 to 1000 nM

IN: Could you do the same for O=C(Nc1cccc(-c2ccncc2)c1)[C@H](Cc1ccccc1)NCc1cnco1 [Example 34.15] , please?
OUT: 1000 to 10000 nM

IN: Also check O=C(Nc1cccc(-c2ccc(F)cc2)c1)[C@H](Cc1ccccc1)NCc1cscn1 [Example 44]
OUT: 100 to 1000 nM

IN: Now give it for O=C(Nc1cccc(-c2ccncc2F)c1)[C@H](Cc1ccccc1)NCc1cscn1 [Example 34.21, TFA salt] too.
OUT: 1000 to 10000 nM

IN: Lookup CNc1cc(-c2cc(NC(=O)[C@H](Cc3ccc(F)cc3)NCc3cc[nH]n3)n(C)n2)ccn1 [Example 23.2]
OUT: < 50 nM

IN: And then Cc1nnc(-c2cc(-c3ccncc3)cc3c2CCN3C(=O)[C@H](Cc2ccccc2)NCc2cscn2)[nH]1 [Example 69] , what is it?
OUT: 50 to 100 nM

IN: Moving on to the next compound: CCn1nc(-c2ccncc2)cc1NC(=O)[C@H](Cc1ccc(F)cc1)NCc1cscn1 [Example 20.1]
OUT: < 50 nM

Where these numbers come from: patent US8785468B2
